For each entry below, report its LC retention time value.
assay.info: RP, Waters ACQUITY UPLC BEH C18, 100 × 1 mm, 1.7 µm, 50 °C, 0.3 mL/min, estimated dead time 0.17 min; A: water + 0.1% formic acid + 20 mM ammonium formate; B: methanol + 0.1% formic acid + 20 mM ammonium formate; gradient (min/%B) 0/0 15/100 21/100 22/0 30/0
condition.summary: stereoisomer not certain

Ask: Bench note: what LC retention time did CCCCCCCCCCCCCCCCCC(=O)OCC(O)CO (stereo not given) [Glyceryl monostearate] show?
Reply: 19.2 min

Ask: Same read-out for NS(=O)(=O)c1ccc(-n2nc(C(F)(F)F)cc2-c2ccc(C(=O)O)cc2)cc1 [Celecoxib Carboxylic Acid] ?
Reply: 13.6 min

Ask: Same read-out for CCOP(=S)(OCC)Oc1ccc(=O)n(-c2ccccc2)n1 [Pyridaphenthion] ?
Reply: 14.6 min

Ask: Same read-out for Cc1[nH]c(=O)n(C(C)(C)C)c(=O)c1Cl [Terbacil] ?
Reply: 11.8 min

Ask: Same read-out for CC(C)(C)C(=O)C(Oc1ccc(Cl)cc1)n1ccnc1 (stereo not given) [Climbazole] ?
Reply: 13.2 min
